For each entry below, report its TGI value.
test system: OVCAR-8 ovarian; experiment: NCI tumour cell line growth inhibition, 48 h

For the record COc1ccc(N=C2S/C(=N\C(=Nc3ccccc3)SCc3ccccc3)N(c3ccccc3)C2=Nc2ccc(OC)cc2)cc1 , what value of TGI is listed for OVCAR-8 ovarian? > 100 µM

And what about the compound CCC(CC)c1nc(Nc2ccc(C(=O)OC)cc2)c2ccccc2n1 ? > 31.4 µM

And what about the compound CN1C(=O)CCC2[C@@H]3CC=C4C[C@@H](O)CC[C@]4(C)C3CC[C@@]21C (some centres undefined) ? > 100 µM

And what about the compound CC(C)N1CC2CN(Cc3ccccc3)CC(C1)C2=O ? > 100 µM
